meta.source: patent US20230150974A1

We begin with a simple list: items and their reported Dmax.
Molecular target: HiBit-BRG1 (Homo sapiens)
Construct: expressed in transfected cells
Sequence (P51532 whole entry): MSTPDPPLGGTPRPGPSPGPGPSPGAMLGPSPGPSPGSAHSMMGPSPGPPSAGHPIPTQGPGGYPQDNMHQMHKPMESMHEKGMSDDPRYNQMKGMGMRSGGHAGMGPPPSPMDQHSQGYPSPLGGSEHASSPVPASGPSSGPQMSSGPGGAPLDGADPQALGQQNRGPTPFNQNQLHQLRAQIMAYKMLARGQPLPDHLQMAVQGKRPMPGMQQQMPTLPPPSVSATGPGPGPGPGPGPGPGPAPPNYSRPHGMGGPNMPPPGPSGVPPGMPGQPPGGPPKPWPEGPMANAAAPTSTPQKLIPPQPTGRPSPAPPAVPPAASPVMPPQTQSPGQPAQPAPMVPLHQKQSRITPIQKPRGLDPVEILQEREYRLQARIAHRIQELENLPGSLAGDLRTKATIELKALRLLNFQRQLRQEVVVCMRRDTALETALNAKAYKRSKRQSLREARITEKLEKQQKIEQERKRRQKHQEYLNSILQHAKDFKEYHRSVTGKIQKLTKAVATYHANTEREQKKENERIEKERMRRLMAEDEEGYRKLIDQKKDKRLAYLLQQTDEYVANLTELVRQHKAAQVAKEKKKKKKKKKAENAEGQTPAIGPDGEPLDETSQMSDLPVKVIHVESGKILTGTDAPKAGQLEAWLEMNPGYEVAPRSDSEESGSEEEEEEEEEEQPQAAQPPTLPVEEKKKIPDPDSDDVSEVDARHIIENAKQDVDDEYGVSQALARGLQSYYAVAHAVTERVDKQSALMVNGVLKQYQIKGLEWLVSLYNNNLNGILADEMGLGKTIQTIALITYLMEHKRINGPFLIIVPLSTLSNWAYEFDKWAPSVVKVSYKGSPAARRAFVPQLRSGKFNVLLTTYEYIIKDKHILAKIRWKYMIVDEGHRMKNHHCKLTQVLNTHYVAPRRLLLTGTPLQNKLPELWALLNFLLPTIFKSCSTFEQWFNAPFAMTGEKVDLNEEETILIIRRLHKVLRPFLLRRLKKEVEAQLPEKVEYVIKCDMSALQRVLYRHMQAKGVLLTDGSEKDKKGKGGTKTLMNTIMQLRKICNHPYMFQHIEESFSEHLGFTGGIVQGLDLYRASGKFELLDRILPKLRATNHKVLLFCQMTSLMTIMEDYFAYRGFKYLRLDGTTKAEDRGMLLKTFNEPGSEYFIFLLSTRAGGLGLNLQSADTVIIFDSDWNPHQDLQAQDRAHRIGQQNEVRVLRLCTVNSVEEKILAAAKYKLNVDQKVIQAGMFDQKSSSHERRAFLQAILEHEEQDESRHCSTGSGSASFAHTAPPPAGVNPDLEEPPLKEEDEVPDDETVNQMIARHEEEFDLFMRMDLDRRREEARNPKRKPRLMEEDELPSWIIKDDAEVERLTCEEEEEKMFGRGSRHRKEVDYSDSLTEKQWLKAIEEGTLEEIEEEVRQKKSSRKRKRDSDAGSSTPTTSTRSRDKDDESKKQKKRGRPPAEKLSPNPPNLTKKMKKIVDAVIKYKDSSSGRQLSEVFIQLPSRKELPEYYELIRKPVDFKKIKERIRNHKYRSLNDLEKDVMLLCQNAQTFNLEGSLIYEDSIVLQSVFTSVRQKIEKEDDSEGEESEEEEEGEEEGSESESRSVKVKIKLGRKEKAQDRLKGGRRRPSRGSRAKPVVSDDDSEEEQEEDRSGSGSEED
Test: HiBit-BRG1 cell-based degradation assay (Nano-Glo HiBiT Lytic Detection)
Conditions: HeLa cells expressing HiBit-BRG1 and LgBit, 24 h; read-out: BRG1 HiBit Degradation Maximum (%)
property.measured: Dmax

molecule: Cc1ncsc1-c1ccc(CNC(=O)[C@@H]2C[C@@H](O)CN2C(=O)[C@@H](NC(=O)CN2CCC(OC3CCN(CCC(=O)NCc4ccc(CCOc5cc(-c6ccccc6O)nnc5N)cc4)CC3)CC2)C(C)(C)C)cc1 [Compound 244]
result: < 50%
--
molecule: Cc1ncsc1-c1ccc(CNC(=O)[C@@H]2C[C@@H](O)CN2C(=O)[C@@H](NC(=O)CCCCCCCCCCCCCCCC(=O)N(C)Cc2ccc(CCOc3cc(-c4ccccc4O)nnc3N)cc2)C(C)(C)C)cc1 [Compound 228]
result: > 75%
